- Tested on: OVCAR-3 ovarian
- test_details: NCI tumour cell line growth inhibition, 48 h; in the data active = GI50 below about 0.43 µM; inactive = the rest
Your answer must be one of the following: active, inactive

INSERT INTO measurements (molecule, label_class) VALUES
  ('O=[N+]([O-])c1ccc(-c2nc(N(CCO)CCO)c3ccccc3n2)o1', 'active'),
  ('CC(=O)C1CC2(c3ccc(C)cc3)C(c3ccc(C)cc3)=C(c3ccc(C)cc3)C1(c1ccc(C)cc1)S2=O (stereo not drawn)', 'inactive');

stdin: Could you please tell me the result logged for `C=C1CC[C@@]2(C#N)[C@H]3[C@H](CC[C@@H]2C)[C@@H](C)C[C@@H](CC(C)(C)C#N)[C@H]13` in this assay?
stdout: inactive
